experiment: NFAT Signaling Pathway (AID 444); conditions: Jurkat NFAT-bla M1, carbachol, beta-lactamase ratio, 5 h; at 7.69 µM (top of the series) unless noted;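 note: carbachol stimulus at about its EC50 of 1 µM final; % is set by controls: 0 for no effect and ±100 for the full control effect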
Results filed as inconclusive are left out.
Documented activity change, negative = inhibition across a set of compounds
Give the value in % but do not write % after it.

compound | measured-endpoint | test-result
CC(C)[C@@H]1OC(=O)C=CC=CC=CC=CC=CC[C@@H](O)[C@H](C)[C@@H](O)C[C@H](O)C[C@H](O)C[C@H](O)C[C@H](O)C[C@H](O)C[C@H](O)C=C[C@@H]1C | activity change, negative = inhibition | 9.95

Request: What value of activity change, negative = inhibition has been recorded for this entry: N=C(N)SCc1ccc(Cl)cc1Cl (tested in a mixture with another compound)
Result: -21.9

Request: What value of activity change, negative = inhibition has been recorded for this entry: COc1nc(N)nc2c1ncn2[C@@H]1C[C@H](O)[C@@H](CO)O1
Result: 4.99

Request: What value of activity change, negative = inhibition has been recorded for this entry: Oc1c(Cl)cc(CN(Cc2cc(Cl)c(O)c(Cl)c2)C2CCCCC2)cc1Cl
Result: 1.82
